Biological target: GLP-1 Receptor (Homo sapiens)
Sequence (P43220 24-463): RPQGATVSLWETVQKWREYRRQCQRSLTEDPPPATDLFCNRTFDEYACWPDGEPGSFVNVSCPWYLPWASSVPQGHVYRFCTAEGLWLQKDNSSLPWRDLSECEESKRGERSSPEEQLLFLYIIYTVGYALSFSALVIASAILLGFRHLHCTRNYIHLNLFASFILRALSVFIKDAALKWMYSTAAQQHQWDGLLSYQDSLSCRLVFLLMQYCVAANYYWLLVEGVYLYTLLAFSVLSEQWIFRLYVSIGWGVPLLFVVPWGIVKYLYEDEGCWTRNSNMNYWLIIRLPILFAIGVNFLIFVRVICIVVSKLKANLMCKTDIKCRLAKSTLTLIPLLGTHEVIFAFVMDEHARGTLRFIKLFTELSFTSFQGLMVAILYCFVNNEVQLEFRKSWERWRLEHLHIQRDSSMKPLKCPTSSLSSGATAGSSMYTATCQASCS
Assay: GLP-1R agonist cAMP stimulation assay (HEK293/GLP1R/CRE-LUC cells, HTRF cAMP dynamic 2 kit)
Type: cell-based
Details: HEK293/CRE-Luc cell line (HDB) stably expressing GLP-1 Receptor; 30 min incubation at 37° C.; read-out: GLP1R cAMP Stimulation DR: EC50 (nM) [Species: Human, Assay Cell Line: HDB]
Measured EC50 values are reported for all entries that follow.
Could you give me the number in nM? Just the number is fine.

compound | reported endpoint | unit info | observed measurement
CCS(=O)(=O)Cc1ccc(-n2ccn(-c3c4c(nn3-c3cc(C)c(F)c(C)c3)CCN(C(=O)c3cc5cc(C6CCOCC6)ccc5n3C3(c5noc(=O)[nH]5)CC3)[C@H]4C)c2=O)cc1 [Compound 112a] | EC50 | nM | 0.17
Cc1cc(-n2nc3c(c2-n2ccn(-c4ccc(S(=O)(=O)C5CC5)cc4)c2=O)[C@H](C)N(C(=O)c2cc4cc(C5CCOCC5)ccc4n2[C@@]2(c4noc(=O)[nH]4)C[C@@H]2C)CC3)cc(C)c1F [Compound 108a] | EC50 | nM | 0.043
Cc1cc(-n2nc3c(c2-n2ccn(-c4ccc(CCS(C)(=O)=O)cc4F)c2=O)[C@H](C)N(C(=O)c2cc4cc(C5CCOCC5)ccc4n2[C@@]2(c4noc(=O)[nH]4)C[C@@H]2C)CC3)cc(C)c1F [Compound 110a] | EC50 | nM | 0.05
Cc1cc(-n2nc3c(c2-n2ccn(-c4ccc(N5CCCS5(=O)=O)cc4)c2=O)[C@H](C)N(C(=O)c2cc4cc(C5CCOCC5)ccc4n2[C@@]2(c4noc(=O)[nH]4)C[C@@H]2C)CC3)cc(C)c1F [Compound 107a] | EC50 | nM | 0.18

Please indicate EC50 recorded for Cc1cc(-n2nc3c(c2-n2ccn(-c4cccc(CCS(C)(=O)=O)c4)c2=O)[C@H](C)N(C(=O)c2cc4cc(C5CCOCC5)ccc4n2[C@@]2(c4noc(=O)[nH]4)C[C@@H]2C)CC3)cc(C)c1F [Compound 109a]
0.24
